For each of the compounds below, state its IC50.
Write down the numeric answer in µM and omit the unit.

Q: State, for Plasminogen (Homo sapiens), measured IC50 of the compound listed here: Cc1ccc(C(=O)O)c(Oc2nc(Oc3cc(-c4cccc(CN)c4)ccc3N)c(F)cc2F)c1
Result: 11

Q: // fetch IC50; item: Cc1ccc(C(=O)O)c(Oc2nc(Oc3cc(N)cc(-c4cccc(CN)c4)c3)c(F)cc2F)c1 ; system: Plasminogen (Homo sapiens)
Sequence (P00747 97-580 limits assumed): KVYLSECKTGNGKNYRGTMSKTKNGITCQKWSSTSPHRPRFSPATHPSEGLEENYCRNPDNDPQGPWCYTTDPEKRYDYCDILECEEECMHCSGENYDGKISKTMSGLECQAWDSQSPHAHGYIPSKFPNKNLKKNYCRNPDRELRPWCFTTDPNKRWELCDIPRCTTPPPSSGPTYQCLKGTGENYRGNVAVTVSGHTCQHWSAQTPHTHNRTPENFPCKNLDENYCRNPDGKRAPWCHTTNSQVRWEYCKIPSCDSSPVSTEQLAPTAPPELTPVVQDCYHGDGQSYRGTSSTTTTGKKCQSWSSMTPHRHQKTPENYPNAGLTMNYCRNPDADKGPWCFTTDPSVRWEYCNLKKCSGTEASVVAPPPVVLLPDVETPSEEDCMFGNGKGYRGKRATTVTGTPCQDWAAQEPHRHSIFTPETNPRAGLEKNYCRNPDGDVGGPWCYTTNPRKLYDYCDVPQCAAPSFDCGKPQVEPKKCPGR
Sequence (P00747 581-810 limits assumed): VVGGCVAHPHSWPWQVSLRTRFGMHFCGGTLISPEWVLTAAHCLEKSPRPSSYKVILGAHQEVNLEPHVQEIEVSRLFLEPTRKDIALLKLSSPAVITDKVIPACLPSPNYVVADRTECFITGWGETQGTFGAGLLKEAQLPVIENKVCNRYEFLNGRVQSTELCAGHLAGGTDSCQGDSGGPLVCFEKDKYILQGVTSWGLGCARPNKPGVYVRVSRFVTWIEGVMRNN
Result: 5

Q: System Plasminogen (Homo sapiens). Read-out IC50. Item Cc1cccc(C(=O)O)c1Oc1nc(Oc2cccc(-c3cccc(CN)c3)c2)c(F)cc1F . Report value.
Result: 8.6

Q: Print Plasminogen (Homo sapiens) IC50 for CN(C)c1ccc(C(=O)O)c(Oc2nc(Oc3cccc(-c4cccc(CN)c4)c3)c(F)c(N3CCOCC3)c2F)c1 .
Result: 2.1

Q: Provide IC50, system Plasminogen (Homo sapiens), entry NCc1cccc(-c2cccc(Oc3nc(Oc4ccccc4C(=O)O)c(F)cc3F)c2)c1
Result: 21

====

Assay: Cmax in rat
Type: ADME, organism-based
Details: in vivo
Give Cmax for every item shown.

Q: Give recorded Cmax. Cc1ccc(C(=O)O)c(Oc2nc(Oc3cc(N)cc(-c4cccc(CN)c4)c3)c(F)cc2F)c1
Result: 59 ng/mL

Q: Provide Cmax value for the following compound: CN(C)c1ccc(C(=O)O)c(Oc2nc(Oc3cccc(-c4cccc(CN)c4)c3)c(F)cc2F)c1
Result: 33 ng/mL

Q: Determine its reported Cmax: Cc1ccc(C(=O)O)c(Oc2nc(Oc3cccc(-c4cccc(CN)c4)c3)c(F)cc2F)c1
Result: 220 ng/mL

====

Experiment: Clearance in rat
Format: ADME, organism-based
Conditions: in vivo
Give measured clearance for each item. Keep answers brief.
Enter your answer as a number in mL/min/kg; do not include the unit.

Q: Entry Cc1ccc(C(=O)O)c(Oc2nc(Oc3cccc(-c4cccc(CN)c4)c3)c(F)cc2F)c1 needs its clearance filled in; supply it.
Result: 54

Q: Give the value of clearance reported for the following: CN(C)c1ccc(C(=O)O)c(Oc2nc(Oc3cccc(-c4cccc(CN)c4)c3)c(F)cc2F)c1
Result: 26

Q: Report clearance for CN(C)c1ccc(C(=O)O)c(Oc2nc(Oc3cccc(-c4cccc(CN)c4)c3)c(F)c(N3CCC(N(C)C)C3)c2F)c1 (centres undefined)
Result: 5

Q: State its clearance for this molecule: Cc1ccc(C(=O)O)c(Oc2nc(Oc3cc(N)cc(-c4cccc(CN)c4)c3)c(F)cc2F)c1
Result: 257

====

Experiment: Oral bioavailability in rat
Type: ADME, organism-based
Details: in vivo
observation type: bioavailability

Q: Quick one: give measured bioavailability for CN(C)c1ccc(C(=O)O)c(Oc2nc(Oc3cccc(-c4cccc(CN)c4)c3)c(F)c(N3CCC(N(C)C)C3)c2F)c1 (centres undefined)
Result: 0%

Q: Indicate its recorded bioavailability; the compound in question is Cc1ccc(C(=O)O)c(Oc2nc(Oc3cccc(-c4cccc(CN)c4)c3)c(F)cc2F)c1
Result: 37%

Q: Determine from records and report bioavailability for Cc1ccc(C(=O)O)c(Oc2nc(Oc3cc(N)cc(-c4cccc(CN)c4)c3)c(F)cc2F)c1
Result: 18%

Q: Please give the documented bioavailability of CN(C)c1ccc(C(=O)O)c(Oc2nc(Oc3cccc(-c4cccc(CN)c4)c3)c(F)cc2F)c1
Result: 9%
